# Tested on: Influenza A virus
# Procedure Details: Antiviral activity against Influenza A virus A/PR/8/34 (H1N1) infected in MDCK cells assessed as reduction in plaque formation treated 1 hr post viral infection and measured after 48 hrs post-infection by toluidine blue staining based plaque reduction assay
# Assay type: functional, organism-based
# Recorded Conditions: A/Puerto Rico/8/1934(H1N1)
Observation Type: EC50 (µM)
State just the number; it will be interpreted in µM.

Worked cases, EC50 given:
Cc1cc(-c2ccccc2)n2nc(C(=O)Nc3ccsc3C(N)=O)nc2n1 ... 43
Cc1cc(-c2ccccc2)n2nc(C(=O)Nc3sc4ccccc4c3C(N)=O)nc2n1 ... 49

# molecule Cc1cc(-c2ccccc2)nc2nc(C(=O)Nc3c(C(N)=O)sc4ncccc34)nn12 ; its EC50 = 43

###

Parameter: CC50. Scope: all listed entries.
# Tested on: MDCK
# Procedure Details: Cytotoxicity against dog MDCK cells assessed as reduction in cell viability incubated for 48 hrs by MTT assay
# Format: cell-based, Canis lupus familiaris
# Recorded Conditions: mdck, 48 h

Cc1cc(-c2ccccc2)nc2nc(C(=O)Nc3sc4c(c3C(=O)O)CCCCC4)nn12 ... > 250 µM

# compound Cc1cc(-c2ccccc2)n2nc(C(=O)Nc3sc4ccccc4c3C(N)=O)nc2n1 ; its CC50 = > 250 µM

# compound CCC1CCc2c(sc(NC(=O)c3nc4nc(C)cc(-c5ccccc5)n4n3)c2C(N)=O)C1 (stereo not drawn) ; its CC50 = > 250 µM
